The reported numbers originate from PubChem BioAssay AID1159580.

Assay: chemical genetic growth profiling, strain panel (AID 1159580);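 further: tested at 20 µM; growth read once vehicle control cultures reached saturation at 30 °C; 1 = growth at the plate median or of vehicle wells; lower values mean less growth of the strain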
Conditions: S. cerevisiae deletion strains, growth OD, locus YER002W, strain NOP16, stronger effect = lower value
Among all 5,500 compounds or so, about 2,000 (36%) were called active. Not shown: some 18% with an inconclusive outcome. This is one part of the list.
reported.property: normalized growth
// response body must contain only the number

[Q] Provide only the value of recorded normalized growth for `N#C/C(=C/c1ccc(O)c(O)c1)C(N)=S`
[A] 0.995

[Q] Provide only the value of recorded normalized growth for `CC(C)(C)c1cc(C=C(C#N)C#N)cc(C(C)(C)C)c1O`
[A] 1.02

[Q] Provide only the value of recorded normalized growth for `N#C/C(=C\c1ccc(O)c(O)c1)C(=O)NCCCc1ccccc1`
[A] 0.993

[Q] Provide only the value of recorded normalized growth for `C=C(C)[C@H]1CN[C@H](C(=O)O)[C@H]1CC(=O)O`
[A] 1.01

[Q] Provide only the value of recorded normalized growth for `NNC(=O)c1ccc(O)cc1`
[A] 0.985

[Q] Provide only the value of recorded normalized growth for `N#C/C(=C\c1ccc(O)c(O)c1)C(=O)NCCCNC(=O)/C(C#N)=C/c1ccc(O)c(O)c1`
[A] 0.987

[Q] Provide only the value of recorded normalized growth for `CC1=NN=C(c2ccc(N)cc2)c2cc3c(cc2C1)OCO3`
[A] 0.967

[Q] Provide only the value of recorded normalized growth for NC(=S)NCCCC(N)C(=O)O (configuration not stated)
[A] 1.02

[Q] Provide only the value of recorded normalized growth for `N#CC(C#N)=Cc1cc(O)c(O)c(O)c1`
[A] 0.996

[Q] Provide only the value of recorded normalized growth for `Cc1cc(C)c(/C=C2\C(=O)Nc3ccccc32)[nH]1`
[A] 0.999

[Q] Provide only the value of recorded normalized growth for `O=C(Nc1ccccc1)c1cc([N+](=O)[O-])ccc1Cl`
[A] 0.972

[Q] Provide only the value of recorded normalized growth for `O=S(=O)(c1cccc2c(I)cccc12)N1CCCNCC1`
[A] 1.01
